# System: Plasmodium falciparum
# assay-info: GSK_TCMDC: Inhibition of Plasmodium falciparum 3D7 in whole red blood cells, using parasite LDH activity as an index of growth. Test compounds present at 2uM
# Type: functional
Listing of recorded Inhibition by entry.
reported-property: Inhibition (%)

* Cc1ccc2c(-c3ccc([N+](=O)[O-])o3)cc(C)nc2c1 | 95
* O=C(N[C@H]1CCN(Cc2ccc(OCCN3CCNCC3)c(Br)c2)C1)c1ccc(Cl)c(Cl)c1.O=C(O)C(F)(F)F | 100
* CC(=O)Nc1ccc(Nc2ncc([N+](=O)[O-])c(Nc3ccccc3C(N)=O)n2)cc1.Cl | 98
* COC(=O)CCn1c(C2CCN(CC3CCC(NC(=O)/C=C/c4ccc(Cl)c(Cl)c4)CC3)CC2)nc2ccccc21 (centres undefined) | 94
* CCCCCCn1c(Sc2ccc(C#N)c([N+](=O)[O-])c2)nnc1-c1cc(OC)cc(OC)c1 | 95
* O=C(Nc1ccccc1Cc1ccccc1)c1ccccc1[N+](=O)[O-] | 98
* Cc1cccc2nc(-c3cccc(-c4cccc(CN5CCN(c6ccc(C#N)cn6)CC5)c4)c3)[nH]c12.O=C(O)C(F)(F)F | 94
* CCn1c(-c2nonc2N)nc2c(C#CC(C)(C)O)ncc(OCCNCCc3ccc(OC)cc3)c21.O=C(O)C(F)(F)F | 91
* C=CCC(CC=C)N1C(=O)C(c2ccccc2)(c2ccccc2)N=C1N.O=CO | 98

The measured values listed here are drawn from ChEMBL document CHEMBL1157539.
